- Test system: Coprococcus comes
- runDescription: growth AUC relative to DMSO control (median of replicates) (fraction); higher = more growth (less inhibition), active = hit call of the paper
- experimentalParameters: 20 µM; 24 h
Respond with YES for growth AUC values of 1 and above, NO for values below.

* CN(C)C(=O)c1cccnc1S(N)(=O)=O | YES

Then this molecule:
Check if growth AUC >= 1 (inclusive). Item: CCCCCCCCCCCC[N+](C)(C)Cc1ccc(CC)cc1.[Cl-]
NO

###

Recorded growth AUC by entry
- Tested on: Bacteroides thetaiotaomicron
- runDescription: growth AUC relative to DMSO control (median of replicates) (fraction); higher = more growth (less inhibition), active = hit call of the paper
- experimentalParameters: 20 µM; 24 h
Form rule: numeric answer, no unit written next to it.

* O=C(O)COc1ccc(Cl)c2cccnc12 | 0.997
* CCC/C(=N\OCC)C1=C(O)CC(C2CCCSC2)CC1=O (centres undefined) | 1.04
* c1ccc(Nc2ccccc2)cc1 | 1

Endpoint output: growth AUC of Cc1[nH]n(C)c(=O)c1C(=O)c1ccc(C(F)(F)F)cc1S(C)(=O)=O . Value?
0.978

Given the molecule O=C(O)COc1ccc(Cl)cc1CO , what is its reported growth AUC?
0.971

Name the recorded growth AUC for Oc1ccccc1 .
0.997

// returns reported growth AUC for input CN(C)C=O
1.01

Give its growth AUC value. Item: C=CCOC(Cn1ccnc1)c1ccc(Cl)cc1Cl (centres undefined)
0.983

###

- Test system: Bacteroides caccae
- runDescription: growth AUC relative to DMSO control (median of replicates) (fraction); higher = more growth (less inhibition), active = hit call of the paper
- experimentalParameters: 20 µM; 24 h
Rule: growth AUC of 1 or more gives Condition met; anything lower gives Condition not met.

* COc1cccc(N(C)C(=S)Oc2cccc(C(C)(C)C)c2)n1 | Condition not met
* CCOC(=O)[C@@H](C)Oc1ccc(Oc2cnc3cc(Cl)ccc3n2)cc1 | Condition not met
* C[S+](C)CCC(=O)O.[Cl-] | Condition met
* CCOCOc1ccc(C(=O)Nc2cccc(Cl)c2Cl)cc1 | Condition not met
* COC(=O)C(Cl)Cc1ccc(Cl)cc1 (stereo not drawn) | Condition not met

Hello, I need to know if [O-][n+]1nc(-n2ccnc2)nc2ccc(Cl)cc21 has measured growth AUC not below 1. Thanks!
Condition met

State whether the measured growth AUC reaches 1, counting equality as reaching it, for CCCCCCCCc1c(CC)nc2ncnn2c1N
Condition met

Can O=C(Oc1ccccc1)n1c(C(F)(F)F)nc2cc(Cl)c(Cl)cc21 be said to have growth AUC at or above 1?
Condition not met

###

- System: Escherichia coli ED1a
- runDescription: growth AUC relative to DMSO control (median of replicates) (fraction); higher = more growth (less inhibition), active = hit call of the paper
- experimentalParameters: 20 µM; 24 h
growth AUC values by entry

Worked cases, growth AUC given:
• COC(=O)COc1ccc(Cl)cc1C = 0.969 (inactive)
• COc1cc(OC)nc(NC(=O)NS(=O)(=O)Nc2ccccc2C(=O)N(C)C)n1 = 0.981 (inactive)

Can you look up growth AUC on Escherichia coli ED1a for O=C(O)c1ccc(Cl)cc1Cl ?
0.986 (inactive)

Value wanted: growth AUC (Escherichia coli ED1a) of entry CCc1cccc(CC)c1N(COC)C(=O)CS(=O)(=O)[O-].[Na+]
0.979 (inactive)

Query the reported growth AUC for Escherichia coli ED1a; item: COC(=O)c1ccccc1S(=O)(=O)NC(=O)n1nc(OCC(C)O)n(C)c1=O (stereo unspecified)
0.99 (inactive)

# returns recorded growth AUC (system: Escherichia coli ED1a) for CCc1nc2ncnn2c(N)c1CCCC(=O)O.Cl
1.02 (inactive)

API: value(readout= growth AUC, system= Escherichia coli ED1a, query= CC(C)(C)[C@@H](O)[C@@H](Cc1ccc(Cl)cc1)n1cncn1 (mixture of isomers) )
1 (inactive)

Can you look up growth AUC on Escherichia coli ED1a for Oc1ccccc1 ?
1 (inactive)

Escherichia coli ED1a / growth AUC / COC(=O)[C@@H](C)Oc1ccc(Oc2ncc(C(F)(F)F)cc2Cl)cc1 : value?
1.02 (inactive)

Which growth AUC is reported with Escherichia coli ED1a for this entry: COc1nc(N)nc(C(F)(F)F)n1 ?
0.998 (inactive)

Given the entry CC(C)(c1cc(Br)c(O)c(Br)c1)c1cc(Br)c(O)c(Br)c1 , what growth AUC was observed with Escherichia coli ED1a?
1.04 (inactive)

Hello, the source for this data is the supplement of paper PMC12669032, in case you need it.
